- Tested on: intracellular amastigotes of L. (V) panamensis
- EXPERIMENT_DESCRIPTION: Leishmanicidal activity against intracellular amastigotes (GFP, flow cytometry, 72 h)
- Format: cell-based, Leishmania (Viannia) panamensis
- COND: at 20 µg/mL, intracellular amastigotes, read-out: Leishmanicidal activity % Inhibition
REPORTED_PROPERTY: inhibition at 20 µg/mL (%)
Lab book: enter the figure in %, no units written.

Worked set:
[[record]]
compound = "O=c1ccoc2cc(OCCCCCCCCOc3cc(Cl)ccc3Oc3ccc(Cl)cc3Cl)ccc12"
val = 28.4

[[record]]
compound = "O=c1ccoc2cc(O)ccc12 [7-Hydroxychromone (20), 7-hydroxychromone, reference compound]"
val = 14.8


Read the next record carefully.
[ask] State the recorded inhibition at 20 µg/mL for this entry: O=c1ccoc2cc(OCCCCOc3cc(Cl)ccc3Oc3ccc(Cl)cc3Cl)ccc12
[reply] 91
